Target: T1, human IL-23 (human, UniProt Q9NPF7 20-189; P29460 23-328)
T1 construct: Heterodimer of p19 and p40; also called hIL-23
T1 sequence 1: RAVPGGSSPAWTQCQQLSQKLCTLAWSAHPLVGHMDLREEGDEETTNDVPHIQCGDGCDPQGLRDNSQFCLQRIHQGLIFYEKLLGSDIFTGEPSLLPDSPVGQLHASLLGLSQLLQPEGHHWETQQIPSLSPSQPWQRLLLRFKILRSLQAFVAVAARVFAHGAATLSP
T1 sequence 2: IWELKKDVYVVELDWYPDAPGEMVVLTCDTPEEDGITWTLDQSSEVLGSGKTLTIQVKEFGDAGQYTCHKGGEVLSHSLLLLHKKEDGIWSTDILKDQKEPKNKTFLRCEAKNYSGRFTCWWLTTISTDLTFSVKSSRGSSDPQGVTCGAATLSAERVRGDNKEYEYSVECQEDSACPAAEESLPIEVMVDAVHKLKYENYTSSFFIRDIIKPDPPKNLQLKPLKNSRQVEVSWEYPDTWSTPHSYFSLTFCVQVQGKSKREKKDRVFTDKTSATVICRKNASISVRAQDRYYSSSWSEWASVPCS
Experiment: SPR Biacore, purified mAb captured on anti-human IgG, human IL-23 64-0.062 nM
Documented koff across a set of binders
All answers are understood in s⁻¹, so give the number only.

Below are worked cases with known answers.
>  <binder>
A5M20 (antibody, human IgG1, kappa, V domains shown) VH: QVQLVQSGAEVKKPGSSVKVSCKASGYTFTSYGITWVRQAPGQGLEWMGENYPRSGNTYYNEKFKGRVTITADKSTSTAYMELSSLRSEDTAVYYCARAEFISTVVAPYYYALDYWGQGTLVTVSS VL: DIVMTQSPDSLAVSLGERATINCKASKKVTIFGSISALHWYQQKPGQPPKLIYNLAKLESGVPDRFSGSGSGTDFTLTISSLQAEDVAVYYCLQNKEVPYTFGGGTKVEIKR

>  <koff, s⁻¹>
0.00014

$$$$
>  <binder>
A24AM4 (antibody, human IgG1, kappa, V domains shown) VH: QVQLVQSGAEVKKPGSSVKVSCKASGYTFTSYGITWVRQAPGQGLEWMGENYPRSGNIYYNEKFKGRVTITADKSTSTAYMELSSLRSEDTAVYYCARAEFISTVVAPYYYALDYWGQGTLVTVSS VL: DIVMTQSPDSLAVSLGERATINCKASKKVTIFGSTSALHWYQQKPGQPPKLIYNGAKPESGVPDRFSGSGSGTDFTLTISSLQAEDVAVYYCLQNKEVPYTFGGGTKVEIKR

>  <koff, s⁻¹>
0.000132

$$$$
>  <binder>
A5M0 (antibody, human IgG1, kappa, V domains shown) VH: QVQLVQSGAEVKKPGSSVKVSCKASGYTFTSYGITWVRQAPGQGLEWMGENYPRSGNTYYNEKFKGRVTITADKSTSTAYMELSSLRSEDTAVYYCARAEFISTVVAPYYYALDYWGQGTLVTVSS VL: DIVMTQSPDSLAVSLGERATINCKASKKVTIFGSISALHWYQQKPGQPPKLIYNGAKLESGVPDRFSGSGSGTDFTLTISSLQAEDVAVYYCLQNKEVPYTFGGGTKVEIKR

>  <koff, s⁻¹>
0.000175

$$$$
>  <binder>
A5M21 (antibody, human IgG1, kappa, V domains shown) VH: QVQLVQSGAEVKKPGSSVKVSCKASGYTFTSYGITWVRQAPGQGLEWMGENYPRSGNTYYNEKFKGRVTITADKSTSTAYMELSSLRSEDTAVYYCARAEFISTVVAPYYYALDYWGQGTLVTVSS VL: DIVMTQSPDSLAVSLGERATINCKASKKVTIYGSTSALHWYQQKPGQPPKLIYNLAKPESGVPDRFSGSGSGTDFTLTISSLQAEDVAVYYCLQNKEVPYTFGGGTKVEIKR

>  <koff, s⁻¹>
0.000112

$$$$
>  <binder>
A24AM18 (antibody, human IgG1, kappa, V domains shown) VH: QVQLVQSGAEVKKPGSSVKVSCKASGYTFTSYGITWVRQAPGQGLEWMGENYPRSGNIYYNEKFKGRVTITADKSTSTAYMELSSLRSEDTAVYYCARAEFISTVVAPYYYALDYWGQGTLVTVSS VL: DIVMTQSPDSLAVSLGERATINCKASKKVTIFGSTSALHWYQQKPGQPPKLIYNLAKPESGVPDRFSGSGSGTDFTLTISSLQAEDVAVYYCLQNKEVPYTFGGGTKVEIKR

>  <koff, s⁻¹>
0.000115

$$$$
>  <binder>
A5M12 (antibody, human IgG1, V domains shown) VH: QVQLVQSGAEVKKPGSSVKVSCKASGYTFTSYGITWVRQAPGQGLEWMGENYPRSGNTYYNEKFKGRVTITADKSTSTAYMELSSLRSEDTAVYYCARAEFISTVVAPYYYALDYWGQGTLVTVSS VL: DIVMTQSPDSLAVSLGERATINCKASKKVTIYGSTSALHWYQQKPGQPPKLIYNGAKPESGVPDRFSGSGSGTDFTLTISSLQAEDVAVYYCLQNKEVPYTFGGGTKVEIK

>  <koff, s⁻¹>
0.000132

$$$$

Could you now look at the following binder, please?
Briefly, koff measured for A3M0 (antibody, human IgG1, kappa, V domains shown, human gamma1 and kappa constant regions; Tested as HEK supernatant and as purified antibody; also called A3M0 purified) VH: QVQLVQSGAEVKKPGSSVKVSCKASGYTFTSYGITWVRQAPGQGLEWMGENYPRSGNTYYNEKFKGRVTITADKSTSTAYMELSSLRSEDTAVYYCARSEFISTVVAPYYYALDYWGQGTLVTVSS VL: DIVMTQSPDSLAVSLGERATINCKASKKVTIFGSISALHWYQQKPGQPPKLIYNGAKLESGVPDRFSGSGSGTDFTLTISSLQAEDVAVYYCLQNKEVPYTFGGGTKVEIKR : 0.000216

All figures here come from patent US20120128689A1.
